System: HCT-15
Each item that follows carries a reported GI50.
property_label: GI50

>  <compound>
CS(=O)(=O)NNS(=O)(=O)c1ccc(F)cc1

>  <property_label>
GI50

>  <result>
> 100 µM

$$$$
>  <compound>
Cc1[nH]c(=O)nc(N/N=C/c2ccc(Cl)cc2)c1C(=O)Nc1ccc(Cl)cc1

>  <property_label>
GI50

>  <result>
38.5 µM

$$$$
>  <compound>
Oc1cccc(-c2nc3cc(F)ccc3s2)c1

>  <property_label>
GI50

>  <result>
11.2 µM

$$$$
>  <compound>
Cc1cc(Cl)cc2c1NC(=O)C2=O.O=C(c1ccccc1)C(F)(F)F

>  <property_label>
GI50

>  <result>
64.4 µM

$$$$
>  <compound>
NC(=O)Nc1ccc(C(=O)NCCCNC(=O)c2ccc(NC(N)=O)cc2)cc1

>  <property_label>
GI50

>  <result>
> 100 µM

$$$$
>  <compound>
O=C/C(=C(/Cl)c1ccc(O)cc1)c1ccccc1

>  <property_label>
GI50

>  <result>
16.1 µM

$$$$
>  <compound>
ICC1CCCO1 (stereo unspecified)

>  <property_label>
GI50

>  <result>
> 100 µM

$$$$
>  <compound>
CCn1cc(/C=C/C(C)c2cn(CC)c(=O)[nH]c2=O)c(=O)[nH]c1=O (stereo unspecified)

>  <property_label>
GI50

>  <result>
> 100 µM

$$$$
>  <compound>
CSc1nc(Cl)c2c(n1)Sc1nc3cc4c(cc3n1C2O)OCCO4 (stereo unspecified)

>  <property_label>
GI50

>  <result>
0.104 µM

$$$$
>  <compound>
COc1cc(C=C2N=C(c3ccccc3)N(n3c(-c4ccccc4)nc4ccccc4c3=O)C2=O)cc(OC)c1OC

>  <property_label>
GI50

>  <result>
31.5 µM

$$$$
>  <compound>
Cc1ccccc1C1=C(C(=O)Nc2ccc(Cl)c(Cl)c2)NC(=S)NC1N (stereo unspecified)

>  <property_label>
GI50

>  <result>
> 100 µM

$$$$
>  <compound>
O=C1CCCSCCCC(=O)CCCSCCC1

>  <property_label>
GI50

>  <result>
> 100 µM

$$$$
>  <compound>
Cc1cccc(NC2=NC(=O)C(CC(=O)Nc3ccccc3Cl)S2)c1 (stereo unspecified)

>  <property_label>
GI50

>  <result>
> 100 µM

$$$$
>  <compound>
Cn1ccnc1SC(F)(F)c1nc2ccccc2o1

>  <property_label>
GI50

>  <result>
> 100 µM

$$$$
>  <compound>
C=CCN1C(=O)/C(=C/c2cccs2)N=C1SC1OC(COC(=O)c2ccccc2)C(OC(=O)c2ccccc2)C1OC(=O)c1ccccc1 (stereo unspecified)

>  <property_label>
GI50

>  <result>
> 100 µM

$$$$
>  <compound>
O=C(NCCOCCO)c1ccc(O)cc1

>  <property_label>
GI50

>  <result>
> 100 µM

$$$$
>  <compound>
C=CCNC1=C2C[C@@H](C)C[C@@H](OC)C(OC(=O)CCCN(C)C)[C@H](C)/C=C(\C)[C@@H](OC(N)=O)[C@H](OC)/C=C\C=C(/C)C(=O)NC(=CC1=O)C2=O (stereo partly specified)

>  <property_label>
GI50

>  <result>
6.32 µM

$$$$
>  <compound>
CC12CCC(C/C1=N\NC(N)=O)C2(C)C (stereo unspecified)

>  <property_label>
GI50

>  <result>
> 100 µM

$$$$
>  <compound>
COc1cc(C2C3=C(COC3=O)OC(C)(C)Oc3cc4c(cc32)OCO4)cc(OC)c1O (stereo unspecified)

>  <property_label>
GI50

>  <result>
0.873 µM

$$$$
>  <compound>
COc1ccc(-n2c(N)c(C#N)c(C#N)c2-c2ccco2)cc1

>  <property_label>
GI50

>  <result>
> 100 µM

$$$$
>  <compound>
COP(=O)(OC)C(O)/C=C/c1ccco1 (stereo unspecified)

>  <property_label>
GI50

>  <result>
> 100 µM

$$$$
>  <compound>
COc1ccccc1/C=C\c1cc(OC)c(OC)c(OC)c1

>  <property_label>
GI50

>  <result>
4.2 µM

$$$$
>  <compound>
O=C(Nc1nc2c(ncn2C2OC(CO)C(O)C2O)c(=O)[nH]1)c1ccccc1 (stereo unspecified)

>  <property_label>
GI50

>  <result>
> 100 µM

$$$$
>  <compound>
COc1cc(O)c2c(c1)OCC(Cc1ccc(O)cc1)C2=O (stereo unspecified)

>  <property_label>
GI50

>  <result>
94.8 µM

$$$$
>  <compound>
CC(C)CNC(=O)O

>  <property_label>
GI50

>  <result>
> 100 µM

$$$$
>  <compound>
O=C1CCCC2=C1CC1=C(CCCC1=O)N2c1ccc(-c2ccccc2)cc1

>  <property_label>
GI50

>  <result>
> 100 µM

$$$$
